Taken from PubChem BioAssay (NCI).

test system: NCI/ADR-RES ovarian; experiment: NCI tumour cell line growth inhibition, 48 h
*1 amine or outer side, *2 acyl side, *3 side chain or, on linkers, in order; H or OH if unused. Where a SMILES comes first, the peptide text is derived from it. [ ]: non-standard residue; d: D form. ξ: configuration not given here. X21 = CC[C@@H](C)C(N[*:1])C(=O)[*:2]; ξR = N=C(N)NCCCC(N)C(=O)O; ξI = CCC(C)C(N)C(=O)O; ξL = CC(C)CC(N)C(=O)O; ξK = NCCCCC(N)C(=O)O; ξV = CC(C)C(N)C(=O)O; ξA = CC(N)C(=O)O
GI50 overview
observationType: GI50

CCC(C)C1NC(=O)C(CC(C)C)NC(=O)C(C)NC(=O)C(C(C)C)NC(=O)C(CCCCN)NC(=O)C(CC(C)C)NC(=O)C(C(C)C)NC(=O)[C@H](C)NC(=O)C(C(C)CC)NC(=O)C(CCCN=C(N)N)NC(=O)C(CCCCN)NC(=O)C(CCCN=C(N)N)NC(=O)C(CCCCN)NC(=O)C([C@H](C)CC)NC(=O)C(CCCCN)NC1=O (some centres not stated) (cyclo(A[ξV][ξL][ξK][ξV][ξA][ξL][ξI][ξK][X21][ξK][ξR][ξK][ξR][ξI])) :: 1060 nM
COc1cc(/C=C2\C(=O)Nc3cccc(Cl)c32)cc(OC)c1OC :: > 100000 nM
